Data origin: PubChem BioAssay (NCI)

- assay_name: NCI Yeast Anticancer Drug Screen. Data for the bub3 strain (AID 167)
- measurement_setup: S. cerevisiae bub3 mutant strain, at 50.0 µM
This is part of a sample that, as a whole, favours compounds with a hit. Of some 79,000 tested, about 15% had one in any assay. Calls of active or inactive are those of the source. Cut-off read from the data, not from the text of the source: active = growth inhibition above about 70%; inactive = the rest.
Outcomes: active, inactive

molecule	assigned_label
O=C1OC(OCC#CCOC2OC(=O)C(Cl)=C2Cl)C(Cl)=C1Cl (stereo unspecified)	active
O=C(NO)Nc1nc(Cl)c(Cl)nc1Cl	active
CC1=C(C(=O)Nc2cccc(Cl)c2)C(c2ccccc2F)C(C(=O)Nc2cccc(Cl)c2)=C(C)N1	active
ClC1(Cl)C(Cl)(Cl)C12c1ccccc1-c1ccccc12	active
CC(CN(C)C)C(/C=C/c1ccc(F)cc1)=N\Nc1ccccc1 (stereo unspecified)	inactive
O=C1C(Cl)=C(N2CCN(c3ccccn3)CC2)C(=O)c2ncccc21	active
